Measured values drawn from patent US8710233B2 for this set.

For each of the compounds below, state its inhibition at 0.1 µM.
# experimental-target: VR1/TRPV1 receptor (Homo sapiens)
# Sequence (Q8NER1 whole entry): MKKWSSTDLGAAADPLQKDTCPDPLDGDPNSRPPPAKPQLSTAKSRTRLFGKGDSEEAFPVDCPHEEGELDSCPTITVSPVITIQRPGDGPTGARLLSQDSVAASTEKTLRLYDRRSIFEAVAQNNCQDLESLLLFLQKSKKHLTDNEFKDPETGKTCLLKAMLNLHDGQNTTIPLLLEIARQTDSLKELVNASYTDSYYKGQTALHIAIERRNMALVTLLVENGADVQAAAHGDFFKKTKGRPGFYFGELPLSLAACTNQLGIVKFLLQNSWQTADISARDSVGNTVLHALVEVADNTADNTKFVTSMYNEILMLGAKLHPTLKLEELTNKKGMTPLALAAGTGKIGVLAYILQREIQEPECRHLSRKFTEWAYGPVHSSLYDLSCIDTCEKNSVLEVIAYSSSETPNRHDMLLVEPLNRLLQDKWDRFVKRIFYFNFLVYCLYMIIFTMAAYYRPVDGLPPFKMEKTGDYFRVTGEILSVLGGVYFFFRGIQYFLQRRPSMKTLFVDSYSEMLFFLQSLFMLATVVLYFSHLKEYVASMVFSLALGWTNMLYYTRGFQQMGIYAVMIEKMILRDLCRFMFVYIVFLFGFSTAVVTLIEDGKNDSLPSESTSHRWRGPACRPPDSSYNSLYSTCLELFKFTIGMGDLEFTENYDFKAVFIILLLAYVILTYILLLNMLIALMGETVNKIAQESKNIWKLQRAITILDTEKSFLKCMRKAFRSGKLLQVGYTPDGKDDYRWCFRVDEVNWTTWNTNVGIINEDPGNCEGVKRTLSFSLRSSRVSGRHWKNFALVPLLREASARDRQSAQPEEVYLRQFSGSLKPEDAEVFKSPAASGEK
# assay-comment: IC50 (human) after pH stimulus
# Type: cell-based
# condition-info: @ 0.1 μM; read-out: inhibition in percent, IC50 (human) after pH stimulus
Answers are plain numbers, in %.

Example entries begin here.
In [3]: df
Out[3]:
                                   compound      measurement_name  measured_result
0  Cc1ccc(Oc2nc(C(F)(F)F)ccc2CNC(=O)C(C)c2ccc(NS(C)(=O)=O)c(F)c2)cc1 (stereo not drawn) [Example 345]  inhibition at 0.1 µM                3
1  CC(C(=O)NCc1ccc(C(F)(F)F)nc1N1CCN(c2ncccc2C(F)(F)F)CC1)c1ccc(NS(C)(=O)=O)c(F)c1 (stereo not drawn) [Example 212]  inhibition at 0.1 µM               11
2  CC(C(=O)NCc1ccc(C(F)(F)F)nc1Oc1ccccc1)c1ccc(NS(C)(=O)=O)c(F)c1 (stereo not drawn) [Example 198]  inhibition at 0.1 µM               11

// input: 3 compounds below; output: inhibition at 0.1 µM for each
1. CC(C(=O)NCc1ccc(C(C)(C)C)nc1N1CCCC1)c1ccc(NS(C)(=O)=O)c(F)c1 (stereo not drawn) [Example 240]
2. CC(C(=O)NCc1ccc(C(F)(F)F)nc1OCc1ccccn1)c1ccc(NS(C)(=O)=O)c(F)c1 (stereo not drawn) [Example 202]
3. COc1cc(OC)cc(-c2cc(C(F)(F)F)ccc2CNC(=O)C(C)c2ccc(NS(C)(=O)=O)c(F)c2)c1 (stereo not drawn) [Example 350]

# output
1. 12
2. 16
3. 4

// input: 3 compounds below; output: inhibition at 0.1 µM for each
1. CC(C(=O)NCc1ccc(C(F)(F)F)nc1-c1ccc2[nH]ccc2c1)c1ccc(NS(C)(=O)=O)c(F)c1 (stereo not drawn) [Example 276]
2. CC1CCCN(c2nc(C(F)(F)F)ccc2CNC(=O)C(C)c2ccc(NS(C)(=O)=O)c(F)c2)C1 (stereo not drawn) [Compound 282]
3. CC(C(=O)NCc1ccc(C(F)(F)F)nc1CCC(C)(C)C)c1ccc(NS(C)(=O)=O)c(F)c1 (stereo not drawn) [Compound 263]

# output
1: 11; 2: 55; 3: 52

---

# experimental-target: vanilloid receptor 1 (VR1/TRPV1) of the rat species (Rattus norvegicus, UniProt O35433)
# Construct: The spinal column is removed from decapitated rats; from tissue; host or cells: primary cells dissociated from rat dorsal root ganglia
# Sequence (O35433 whole entry): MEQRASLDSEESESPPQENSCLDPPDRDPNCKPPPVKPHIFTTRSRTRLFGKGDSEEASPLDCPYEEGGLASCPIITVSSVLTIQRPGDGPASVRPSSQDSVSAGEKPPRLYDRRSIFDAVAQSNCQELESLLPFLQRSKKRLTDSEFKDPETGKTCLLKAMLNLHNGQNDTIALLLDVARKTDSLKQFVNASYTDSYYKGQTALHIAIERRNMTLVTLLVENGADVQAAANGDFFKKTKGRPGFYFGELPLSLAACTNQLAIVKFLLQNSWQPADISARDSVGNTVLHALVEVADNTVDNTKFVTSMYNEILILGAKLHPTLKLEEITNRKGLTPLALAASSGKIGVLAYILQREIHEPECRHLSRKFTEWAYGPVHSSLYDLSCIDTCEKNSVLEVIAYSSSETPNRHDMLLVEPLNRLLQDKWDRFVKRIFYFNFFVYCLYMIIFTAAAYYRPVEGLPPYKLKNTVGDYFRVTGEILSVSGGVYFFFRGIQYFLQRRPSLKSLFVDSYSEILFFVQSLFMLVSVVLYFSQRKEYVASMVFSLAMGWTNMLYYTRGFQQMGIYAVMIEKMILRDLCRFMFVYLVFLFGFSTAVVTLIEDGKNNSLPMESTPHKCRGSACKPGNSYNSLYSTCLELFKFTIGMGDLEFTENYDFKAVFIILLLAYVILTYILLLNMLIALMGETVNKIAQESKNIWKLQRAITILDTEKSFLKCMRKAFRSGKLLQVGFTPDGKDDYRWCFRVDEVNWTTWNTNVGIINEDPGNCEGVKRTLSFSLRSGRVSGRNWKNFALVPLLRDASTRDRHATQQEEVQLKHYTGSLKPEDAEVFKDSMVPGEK
# assay-comment: FLIPR Ca2+ influx assay on rat dorsal root ganglia cells (pharmacological method I)
# Assay type: cell-based
# condition-info: table 4; capsaicin; read-out: Ki (rat) Cap.
measurement-name: Ki (nM)
Give bare numbers, in nM.

Example entries begin here.
>>> print(df.to_string())
                                   compound                       experimental_target  unit_tag  measured_result
0  CC1CCN(c2nc(C(F)(F)Cl)ccc2CNC(=O)C(C)c2ccc(NS(C)(=O)=O)c(F)c2)CC1 (stereo not shown) [Example 131]  vanilloid receptor 1 (VR1/TRPV1) of the rat species (Rattus norvegicus, UniProt O35433)        nM              0.4
1  CC(C)CCOc1nc(C(F)(F)F)ccc1CNC(=O)C(C)c1ccc(NS(C)(=O)=O)c(F)c1 (stereo not shown) [Example 123]  vanilloid receptor 1 (VR1/TRPV1) of the rat species (Rattus norvegicus, UniProt O35433)        nM              0.6
2  CC(C(=O)NCc1ccc(C(F)(F)F)nc1N(C)c1ccccc1)c1ccc(NS(C)(=O)=O)c(F)c1 (stereo not shown) [Example 205]  vanilloid receptor 1 (VR1/TRPV1) of the rat species (Rattus norvegicus, UniProt O35433)        nM             11.4
3  Cc1ccc(Nc2nc(C(F)(F)F)ccc2CNC(=O)C(C)c2ccc(NS(C)(=O)=O)c(F)c2)cc1C (stereo not shown) [Example 135]  vanilloid receptor 1 (VR1/TRPV1) of the rat species (Rattus norvegicus, UniProt O35433)        nM             48.9
4  CC(C(=O)NCc1ccc(C(F)(F)F)nc1N1CCN(C)CC1)c1ccc(NS(C)(=O)=O)c(F)c1 (stereo not shown) [Example 134]  vanilloid receptor 1 (VR1/TRPV1) of the rat species (Rattus norvegicus, UniProt O35433)        nM              335
5  CC1CCCN(c2nc(C(F)(F)F)ccc2CNC(=O)C(C)c2ccc(NS(C)(=O)=O)c(F)c2)C1 (stereo not shown) [Example 282]  vanilloid receptor 1 (VR1/TRPV1) of the rat species (Rattus norvegicus, UniProt O35433)        nM              1.2

# input Look at this compound and give its reported Ki. COc1ccc(N2CCN(c3cc(C(F)(F)F)ccc3CNC(=O)C(C)c3ccc(NS(C)(=O)=O)c(F)c3)CC2)cc1 (stereo not shown) [Example 249]
# output 0.2
